Test method notes: qHTS assay to identify small molecule antagonists of the glucocorticoid receptor (GR) signaling pathway - cell viability counter screen (AID 720693); further: nearly all actives have a fitted effect of over 55% in size
Details: GR-bla HeLa viability, CellTiter-Glo luminescence, 18 h, with 5 nM dexamethasone present; series mostly up to 58.5 µM
Results filed as inconclusive are left out. Active and inactive are the calls of the source. The call rests on the fitted dose curve; in most records, active means well fitted cell-killing curve with a large enough effect in the repeat runs; inconclusive means weak or mixed curves, or effect the other way; inactive means no such curve, though single readings can be large or run the other way. Non-standard residues stand in square brackets, D forms with d. Residues, ends and D or L forms follow the SMILES beside them. Orn = NCCC[C@H](N)C(=O)O
Labels: yes (1) for active, no (0) for inactive

[
  {
    "Compound": "CCc1ncnc2cc(OC)c(OC)cc12",
    "Qualitative label": "no (0)"
  },
  {
    "Compound": "CCCC(CCC)C(=O)OC1C[C@H]2CC[C@@H](C1)[N+]2(C)C (some centres not stated)",
    "Qualitative label": "no (0)"
  },
  {
    "Compound": "CC(C)COC(=O)OCN1C(=O)CN(CCN2CC(=O)N(COC(=O)OCC(C)C)C(=O)C2)CC1=O",
    "Qualitative label": "no (0)"
  },
  {
    "Compound": "CO/N=C(\\C(=O)N[C@@H]1C(=O)N2C(C(=O)O)=C(COC(C)=O)CS[C@H]12)c1csc(N)n1 (stereo in doubt)",
    "Qualitative label": "no (0)"
  },
  {
    "Compound": "O=C(O)[C@@H]1C[C@H](CP(=O)(O)O)CCN1",
    "Qualitative label": "no (0)"
  },
  {
    "Compound": "O=C(O)/C=C/C(=O)Nc1ccc(S(=O)(=O)Nc2nccs2)cc1",
    "Qualitative label": "no (0)"
  },
  {
    "Compound": "CO/N=C(\\C(=O)N[C@@H]1C(=O)N2C(C(=O)O)=C(C[N+]3(C)CCCC3)CS[C@H]12)c1csc(N)n1",
    "Qualitative label": "no (0)"
  },
  {
    "Compound": "CC/C=C\\C/C=C\\C/C=C\\C/C=C\\C/C=C\\C/C=C\\CCC(=O)O",
    "Qualitative label": "no (0)"
  },
  {
    "Compound": "CC12CCC(C1)C(C)(C)C2=O (configuration not stated)",
    "Qualitative label": "no (0)"
  },
  {
    "Compound": "Cc1cc(Br)ccc1NC(=O)CCl",
    "Qualitative label": "yes (1)"
  },
  {
    "Compound": "C[C@@H]1C(=O)NC2=Nc3cccc(Cl)c3CN21",
    "Qualitative label": "no (0)"
  },
  {
    "Compound": "Nc1cc(Cl)c(NC2=NCCN2)c(Cl)c1",
    "Qualitative label": "no (0)"
  },
  {
    "Compound": "CN1C(=O)C[C@@H](C(=O)N[C@@H](Cc2cnc[nH]2)C(=O)N2CCC[C@H]2C(N)=O)NC1=O",
    "Qualitative label": "no (0)"
  },
  {
    "Compound": "NC(=O)CC[C@@H]1NC(=O)[C@H](Cc2ccccc2)NC(=O)[C@H](Cc2ccc(O)cc2)NC(=O)[C@@H](N)CSSC[C@@H](C(=O)N2CCC[C@H]2C(=O)N[C@@H](CCCN=C(N)N)C(=O)NCC(N)=O)NC(=O)[C@H](CC(N)=O)NC1=O",
    "Qualitative label": "no (0)"
  },
  {
    "Compound": "Cc1onc(-c2c(F)cccc2Cl)c1C(=O)N[C@@H]1C(=O)N2[C@@H]1SC(C)(C)[C@@H]2C(=O)O",
    "Qualitative label": "no (0)"
  },
  {
    "Compound": "CC(C)C[C@@H]1NC(=O)[C@H](CCCN)NC(=O)[C@H](C(C)C)NC(=O)[C@@H]2CCCN2C(=O)[C@@H](Cc2ccccc2)NC(=O)[C@H](CC(C)C)NC(=O)[C@H](CCCN)NC(=O)[C@H](C(C)C)NC(=O)[C@@H]2CCCN2C(=O)[C@@H](Cc2ccccc2)NC1=O (cyclo(V[Orn]L[dF]PV[Orn]L[dF]P))",
    "Qualitative label": "yes (1)"
  },
  {
    "Compound": "CC(=O)NC[C@H]1CN(c2ccc(N3CCOCC3)c(F)c2)C(=O)O1",
    "Qualitative label": "no (0)"
  }
]
